- Measurement target: human RXFP1 (Homo sapiens, UniProt Q9HBX9)
- Experiment: hRXFP1 HEK293 cAMP assay (HTRF)
- Experimental parameters: HEK293 cells stably expressing human RXFP1, 30 min at room temperature
Experimental readout: pEC50
Field pEC50 (float): negative decimal logarithm of the concentration in molar.

>>> experimental_result("COc1ccc(C#CCOC(=O)Nc2ccccc2)cc1C(=O)N[C@@H]1C2CCC(/C2=C/C(F)(F)F)[C@@H]1C(=O)Nc1ccc(F)c(C(F)(F)F)c1 (stereo partly drawn)")
7.02
>>> experimental_result("COc1ccc(CCN2CCOC2=O)cc1C(=O)NC1C2CCC(/C2=C/C(F)(F)F)[C@@H]1C(=O)Nc1ccc(F)c(C(F)(F)F)c1 (stereo partly drawn)")
6.86
>>> experimental_result("COC(=O)C1CC(c2ccc(OC)c(C(=O)N[C@H]3[C@@H](C(=O)Nc4ccc(F)c(C(F)(F)F)c4)[C@H]4CC[C@@H]3/C4=C\\C3CC3)c2)C1 (single isomer, unassigned) [Example 332]")
6.95
>>> experimental_result("COc1ccc(C(=O)N2CC3CCC(C2)O3)cc1C(=O)N[C@H]1[C@@H](C(=O)Nc2ccc(F)c(C(F)(F)F)c2)[C@H]2CC[C@@H]1/C2=C\\C1CC1")
6.44
>>> experimental_result("COC(=O)c1ccc(F)cc1Cc1ccc(OC)c(C(=O)NC2C3CCC(/C3=C/C(F)(F)F)[C@@H]2C(=O)Nc2ccc(F)c(C(F)(F)F)c2)c1 (stereo partly drawn)")
6.33

Summary for this molecule, COc1ccc(COC2CC2)cc1C(=O)N[C@@H]1C2CCC(/C2=C/C2CC2)[C@@H]1C(=O)Nc1ccc(F)c(C(F)(F)F)c1 (stereo partly drawn) : pEC50 is 6.90

Summary for this molecule, COc1ccc(CCCOc2ccncc2)cc1C(=O)NC1C2CCC(/C2=C/C(F)(F)F)[C@@H]1C(=O)Nc1ccc(F)c(C(F)(F)F)c1 (stereo partly drawn) : pEC50 is 6.01

Summary for this molecule, COc1ccc(CCCO)cc1C(=O)N[C@@H]1C2CCC(/C2=C/C(F)(F)F)[C@@H]1C(=O)Nc1ccc(F)c(C(F)(F)F)c1 (stereo partly drawn) : pEC50 is 7.17

Summary for this molecule, COc1ccc(/C=C/C(=O)N2CC3(CC(O)C3)C2)cc1C(=O)N[C@H]1[C@@H](C(=O)Nc2ccc(F)c(C(F)(F)F)c2)[C@H]2CC[C@@H]1/C2=C\C1CC1 : pEC50 is 7.77

Summary for this molecule, COc1ccc(COc2cccc(C(=O)O)c2)cc1C(=O)N[C@H]1[C@@H](C(=O)Nc2ccc(F)c(C(F)(F)F)c2)[C@H]2CC[C@@H]1/C2=C\C1CC1 : pEC50 is 8.00

---

Let's look at some compounds and their measured EC50.
- Measurement target: human RXFP1 (Homo sapiens, UniProt Q9HBX9)
- Construct: expressed in transfected cells
- Sequence (Q9HBX9 1-757): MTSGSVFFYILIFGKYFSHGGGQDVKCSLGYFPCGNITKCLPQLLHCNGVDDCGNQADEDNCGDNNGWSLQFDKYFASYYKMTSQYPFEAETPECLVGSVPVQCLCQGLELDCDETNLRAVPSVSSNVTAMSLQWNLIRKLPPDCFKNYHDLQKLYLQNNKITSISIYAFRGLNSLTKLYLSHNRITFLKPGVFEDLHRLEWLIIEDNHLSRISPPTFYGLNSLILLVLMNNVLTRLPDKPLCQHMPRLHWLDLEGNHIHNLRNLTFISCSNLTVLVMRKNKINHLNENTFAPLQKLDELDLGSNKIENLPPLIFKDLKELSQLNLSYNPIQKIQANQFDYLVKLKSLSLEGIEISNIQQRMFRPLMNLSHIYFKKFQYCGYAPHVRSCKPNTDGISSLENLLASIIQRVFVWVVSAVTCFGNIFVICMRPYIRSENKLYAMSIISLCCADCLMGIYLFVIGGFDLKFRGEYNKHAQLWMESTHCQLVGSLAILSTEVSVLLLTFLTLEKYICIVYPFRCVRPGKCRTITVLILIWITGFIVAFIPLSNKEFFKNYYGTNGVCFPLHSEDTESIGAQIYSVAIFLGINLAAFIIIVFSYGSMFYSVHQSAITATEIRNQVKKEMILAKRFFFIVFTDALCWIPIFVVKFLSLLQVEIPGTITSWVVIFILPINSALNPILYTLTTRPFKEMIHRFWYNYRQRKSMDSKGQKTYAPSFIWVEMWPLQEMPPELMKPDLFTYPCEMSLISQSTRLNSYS
- Experiment: hRXFP1 HEK293 cAMP assay (HTRF)
- Format: cell-based
- Experimental parameters: HEK293 cells stably expressing human RXFP1, 30 min at room temperature
Record the value in µM, omitting the unit from your answer.

>>> experimental_result("COc1ccc(COC2CCOC2)cc1C(=O)N[C@@H]1C2CCC(/C2=C/C(F)(F)F)[C@@H]1C(=O)Nc1ccc(F)c(C(F)(F)F)c1 (stereo partly shown)")
4.68
>>> experimental_result("COc1ccc([C@H]2C[C@H](O)C2)cc1C(=O)N[C@H]1[C@@H](C(=O)Nc2ccc(F)c(C(F)(F)F)c2)[C@H]2CC[C@@H]1/C2=C\\C1CC1")
0.00725
>>> experimental_result("COc1ccc(CCC(C)C)cc1C(=O)N[C@@H]1C2CCC(/C2=C/C(F)(F)F)[C@@H]1C(=O)Nc1ccc(F)c(C(F)(F)F)c1 (stereo partly shown)")
1.71

Turning now to a further record.
Summary for this compound, COc1ccc(CCCCOC(=O)NC2CCC2)cc1C(=O)N[C@@H]1C2CCC(/C2=C/C(F)(F)F)[C@@H]1C(=O)Nc1ccc(F)c(C(F)(F)F)c1 (stereo partly shown) : EC50 is 0.439

meta.source: patent US20250268903A1
